Origin of the recorded values: PubChem BioAssay AID1159580

Assay: chemical genetic growth profiling, strain panel (AID 1159580);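 further: tested at 20 µM; growth read once vehicle control cultures reached saturation at 30 °C; 1 = growth at the plate median or of vehicle wells; lower values mean less growth of the strain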
Settings: S. cerevisiae deletion strains, growth OD, locus YNL233W, strain BNI4, hits give low values
Among all 5,500 compounds or so, about 2,000 (36%) were called active. Inconclusive results (about 18%) are left out. The list shows a part of the results.
For each of the compounds below, state its normalized growth.
One number for each entry.

Example compounds with recorded normalized growth:
INSERT INTO measurements (compound, assay_value) VALUES
  ('CCN(CCCCOC(=O)c1ccc(OC)c(OC)c1)C(C)Cc1ccc(OC)cc1 (configuration not stated)', 0.996),
  ('CC(=O)Nc1cccc(O)c1', 1.02),
  ('Nc1ccc(C(=O)O)c(O)c1 (tested in a mixture with another compound)', 1.01),
  ('Clc1ccc(Cl)cc1', 1.02),
  ('O=C1CCc2cc(OCCCCc3nnnn3C3CCCCC3)ccc2N1', 1.01),
  ('ClC(Cl)=C(c1ccc(Cl)cc1)c1ccc(Cl)cc1', 0.981);

Would you kindly look at the next entry?
For COCCOC(=O)C1=C(C)NC(C)=C(C(=O)OC(C)C)C1c1cccc([N+](=O)[O-])c1 (configuration not stated) , write its normalized growth. 1

----------
Assay: chemical genetic growth profiling, strain panel (AID 1159580)
Conditions: S. cerevisiae deletion strains, growth OD, locus YKL068W
In all, about 5,500 compounds went through this assay and about 2,000 (36%) were called active. Inconclusive results (about 18%) are left out. Rule as the data show it: active = normalized growth mostly below about 0.91 (no sharp cut-off); inconclusive = no clear call, values can overlap the other calls; inactive = mostly above about 0.92. Some of the results follow.
# valid calls are class 1 for active, class 0 for inactive; nothing else

Outcome logged for COCCOC(=O)C1=C(C)NC(C)=C(C(=O)OC(C)C)C1c1cccc([N+](=O)[O-])c1 (configuration not stated) in this assay: class 0

Outcome logged for C[N+]1(CCCCC[N+]2(C)CCCC2)CCCC1 in this assay: class 0

Outcome logged for CCCN1C[C@H](CSC)C[C@@H]2c3cccc4[nH]cc(c34)C[C@H]21 in this assay: class 0

Outcome logged for CC(=O)O[C@@H]1CC2C(C)(C)C(=O)CC[C@]2(C)C2CC[C@@]3(C)[C@H](c4ccoc4)OC(=O)C4OC43[C@@]21C (some centres not stated) in this assay: class 0

Outcome logged for CC(=O)O[C@H]1C[C@@]2(C)[C@H](c3ccoc3)OC(=O)[C@H]3O[C@]32[C@@]2(C)C1[C@]1(C)C(C[C@H]2OC(C)=O)C(C)(C)[C@H](OC(C)=O)C[C@@H]1OC(C)=O (some centres not stated) in this assay: class 0

Outcome logged for O=C(O)/C=C(\CC(=O)O)C(=O)O in this assay: class 0

Outcome logged for CCN(CCCCOC(=O)c1ccc(OC)c(OC)c1)C(C)Cc1ccc(OC)cc1 (configuration not stated) in this assay: class 0

Outcome logged for OC1C(O)C(O)C(O)C(O)C1O (configuration not stated) in this assay: class 0

Outcome logged for N[C@@H]1CONC1=O in this assay: class 0

Outcome logged for COc1cccc2c1cc([N+](=O)[O-])c1c(C(=O)O)cc3c(c12)OCO3 in this assay: class 0

Outcome logged for O=C1c2c(O)ccc(O)c2C(=O)c2c(NCCNCCO)ccc(NCCNCCO)c21 in this assay: class 1

Outcome logged for O=C(/C=C/c1ccccc1)c1ccc(O)cc1 in this assay: class 1

----------
Assay: chemical genetic growth profiling, strain panel (AID 1159580);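 further: tested at 20 µM; growth read once vehicle control cultures reached saturation at 30 °C; 1 = growth at the plate median or of vehicle wells; lower values mean less growth of the strain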
Settings: S. cerevisiae deletion strains, growth OD, locus YJL092W, strain hpr5, hits give low values
In all, about 5,500 compounds went through this assay and about 2,000 (36%) were called active. About 18% were inconclusive and are not listed. This is one part of the list.
For each of the molecules below, state its normalized growth.
Give bare numbers.

Example molecules with recorded normalized growth:
INSERT INTO assay_data (molecule, assay_value) VALUES
  ('CCCCOc1cc(CC2CNC(=O)N2)ccc1OC (centres undefined)', 0.967),
  ('COC(=O)C1=C(C)NC(C)=C(C(=O)OC)C1c1ccccc1[N+](=O)[O-]', 0.945),
  ('O=c1oc2ccccc2c(O)c1Cc1c(O)c2ccccc2oc1=O', 1.01),
  ('CCN1CCN(c2cc3c(cc2F)c(=O)c(C(=O)O)cn3C2CC2)CC1', 1.01),
  ('CC(=O)O[C@H]1C[C@@H](O)C(C)(C)C2C[C@@H](OC(C)=O)[C@]3(C)C(CC[C@@]4(C)[C@H](c5ccoc5)OC(=O)C5OC543)[C@]21C (some centres undefined)', 1.01),
  ('O=C(O)c1cc(=O)c2ccccc2o1', 0.98);

For every listed record, write down its normalized growth.
1. COC(=O)C1=C(C)NC(C)=C(C(=O)OCC(C)C)C1c1ccccc1[N+](=O)[O-] (centres undefined)
2. C=CCCCCCCCCCCCC(O)CC(O)CO (centres undefined)
3. CC[N+]1(C)CCCC(OC(=O)C(O)(c2ccccc2)c2ccccc2)C1 (centres undefined)
4. OC1C(O)C(O)C(O)C(O)C1O (centres undefined)
5. CC(=O)O[C@@H]1CC2C(C)(C)[C@H](O)C[C@H](O)[C@]2(C)C2CC[C@@]3(C)[C@H](c4ccoc4)OC(=O)[C@H]4O[C@]43[C@@]21C (some centres undefined)
6. CC1=C2C(=CO[C@H](C)[C@H]2C)C(=O)C(C(=O)O)=C1O
7. COCCOC(=O)C1=C(C)NC(C)=C(C(=O)OC(C)C)C1c1cccc([N+](=O)[O-])c1 (centres undefined)
8. COC(=O)C1=C(C)NC(C)=C(C(=O)OCCN(C)Cc2ccccc2)C1c1cccc([N+](=O)[O-])c1 (centres undefined)

0.422
0.992
1.02
1
0.984
0.989
1.02
0.996

----------
For each of the compounds below, state its normalized growth.
Test: chemical genetic growth profiling, strain panel (AID 1159580);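 further: tested at 20 µM; growth read once vehicle control cultures reached saturation at 30 °C; 1 = growth at the plate median or of vehicle wells; lower values mean less growth of the strain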
Settings: S. cerevisiae deletion strains, growth OD, locus YDR069C, strain doa4, hits give low values
The whole screen tested about 5,500 compounds, of which about 2,000 (36%) were called active. Another 18% or so got no clear call; they are omitted. This is one part of the list.
Answers are plain numbers.

Example compounds with recorded normalized growth:
INSERT INTO results (compound, assay_value) VALUES
  ('CC(=O)O[C@@H]1CC2C(C)(C)C(=O)CC[C@]2(C)C2CC[C@@]3(C)[C@H](c4ccoc4)OC(=O)C4OC43[C@@]21C (stereo partly specified)', 0.943),
  ('CC(=O)Nc1cccc(O)c1', 1.03),
  ('C=CCCCCCCCCCCCC(O)CC(O)CO (stereo unspecified)', 1.01);

For every listed record, write down its normalized growth.
1. CN(C)CCC=C1c2ccccc2C=Cc2ccccc21
2. [N-]=[N+]=CC(=O)OCC(N)C(=O)O (stereo unspecified)
3. Nc1ccc(C(=O)O)c(O)c1
4. NC(=O)CC[C@@H](N)C(=O)O
5. COc1cc2cc[n+]3cc4c(OC)c(OC)ccc4cc3c2cc1OC
6. C=CCc1ccccc1OCC(O)CNC(C)C (stereo unspecified)

1. 0.918
2. 1.03
3. 1
4. 1.03
5. 0.981
6. 0.979

For every listed record, write down its normalized growth.
1. O=c1cc(-c2ccc(O)cc2)oc2ccc(O)cc12
2. CC(C)Oc1ccc2c(=O)cc(-c3ccccc3)oc2c1
3. CN(C)CCC=C1c2ccccc2CCc2ccccc21

[0.922, 0.972, 0.955]

----------
Experiment: chemical genetic growth profiling, strain panel (AID 1159580);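 further: tested at 20 µM; growth read once vehicle control cultures reached saturation at 30 °C; 1 = growth at the plate median or of vehicle wells; lower values mean less growth of the strain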
Details: S. cerevisiae deletion strains, growth OD, locus YBR231C, strain swc5, hits give low values
Hit rate of the full screen: of about 5,500 compounds, about 2,000 (36%) were called active. About 18% were inconclusive and are not listed. The list shows a part of the results.
quantity: normalized growth
One number for each entry.

INSERT INTO measurements (molecule, assay_value) VALUES
  ('C=CCc1ccccc1OCC(O)CNC(C)C (stereo unspecified)', 0.987);

For every listed record, write down its normalized growth.
1. COc1c(O)cc2c(-c3ccccc3)cc(=O)oc2c1OC
2. CC(=O)[C@H]1CCC2C3CC=C4C[C@@H](OC(=O)CCC(=O)O)CC[C@]4(C)C3CC[C@@]21C (stereo partly specified)
3. CCC(CCC(C)[C@H]1CCC2C3CC=C4C[C@@H](O)CC[C@]4(C)C3CC[C@@]21C)C(C)C (stereo partly specified)
4. CC(=O)CC(c1ccccc1)c1c(O)c2ccccc2oc1=O (stereo unspecified)
5. O=C(O)c1cc(=O)c2ccccc2o1
6. O=C1CN2Cc3c(ccc(Cl)c3Cl)N=C2N1
7. C=CCCCCCCCCCCCC(O)CC(O)CO (stereo unspecified)

1. 1
2. 0.975
3. 1.01
4. 1
5. 0.982
6. 0.982
7. 0.997

For every listed record, write down its normalized growth.
1. CCC(/C=C/[C@@H](C)[C@H]1CCC2C3CC=C4C[C@@H](O)CC[C@]4(C)C3CC[C@@]21C)C(C)C (stereo partly specified)
2. CC(=O)O[C@@H]1CC2C(C)(C)CCC(=O)[C@]2(C)C2CC[C@@]3(C)[C@H](c4ccoc4)OC(=O)C4OC43[C@@]21C (stereo partly specified)
3. Nc1nc(N)c2nc(-c3ccccc3)c(N)nc2n1

1. 0.988
2. 0.993
3. 1
